Reported Ki values follow for various compounds
SYSTEM_UNDER_TEST: MOR (Rattus norvegicus, UniProt P33535)
Construct: from tissue
Sequence (P33535 whole entry): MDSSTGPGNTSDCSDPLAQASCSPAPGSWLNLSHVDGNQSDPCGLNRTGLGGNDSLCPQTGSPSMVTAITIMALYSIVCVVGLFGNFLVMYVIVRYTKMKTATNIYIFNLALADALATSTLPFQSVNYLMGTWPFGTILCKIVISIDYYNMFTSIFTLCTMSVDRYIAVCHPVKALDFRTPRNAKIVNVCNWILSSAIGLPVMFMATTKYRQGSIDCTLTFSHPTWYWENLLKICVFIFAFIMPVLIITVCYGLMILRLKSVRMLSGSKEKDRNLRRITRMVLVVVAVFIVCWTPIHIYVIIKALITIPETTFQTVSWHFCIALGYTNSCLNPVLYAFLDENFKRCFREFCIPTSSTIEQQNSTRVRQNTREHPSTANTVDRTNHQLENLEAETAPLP
ASSAY_DETAILS: Opioid receptor binding, MOR, rat brain membranes
CONDITION_INFO: Binding Ki (nM) MOR, in vitro binding assay, rat brain membranes

[
  {
    "COMPOUND": "CO[C@@]12CC[C@H](N[C@@H](CO)C(=O)O)[C@@H]3Oc4c(O)ccc5c4[C@@]31CCN(C)[C@@H]2C5 [Compound 36]",
    "Ki [nM]": 2.21
  },
  {
    "COMPOUND": "CO[C@@]12CC[C@H](N[C@@H](CC(N)=O)C(=O)O)[C@@H]3Oc4c(O)ccc5c4[C@@]31CCN(C)[C@@H]2C5 [Compound 26]",
    "Ki [nM]": 1.17
  },
  {
    "COMPOUND": "CO[C@@]12CC[C@H](N[C@@H](Cc3ccc(O)cc3)C(=O)OC(C)(C)C)[C@@H]3Oc4c(O)ccc5c4[C@@]31CCN(C)[C@@H]2C5 [9-t-Bu ester]",
    "Ki [nM]": 0.59
  },
  {
    "COMPOUND": "CO[C@@]12CC[C@@H](N[C@@H](CCSC)C(=O)OC(C)(C)C)[C@@H]3Oc4c(O)ccc5c4[C@@]31CCN(C)[C@@H]2C5 [24-t-Bu ester]",
    "Ki [nM]": 1.83
  },
  {
    "COMPOUND": "CO[C@@]12CC[C@H](N[C@@H](CCC(N)=O)C(=O)OC(C)(C)C)[C@@H]3Oc4c(O)ccc5c4[C@@]31CCN(C)[C@@H]2C5 [17-t-Bu ester]",
    "Ki [nM]": 0.18
  },
  {
    "COMPOUND": "CCC(C)C(NC1CCC2(OC)C3Cc4ccc(O)c5c4C2(CCN3C)C1O5)C(=O)OC(C)(C)C (single isomer, unassigned) [42-t-Bu ester]",
    "Ki [nM]": 1.04
  },
  {
    "COMPOUND": "CO[C@@]12CC[C@H](NCC(=O)OCc3ccccc3)[C@@H]3Oc4c(O)ccc5c4[C@@]31CCN(C)[C@@H]2C5 [HS730-benzyl ester]",
    "Ki [nM]": 0.19
  },
  {
    "COMPOUND": "CO[C@@]12CC[C@@H](N[C@H](C(=O)O)[C@@H](C)O)[C@@H]3Oc4c(O)ccc5c4[C@@]31CCN(C)[C@@H]2C5 [Compound 35]",
    "Ki [nM]": 0.79
  },
  {
    "COMPOUND": "CO[C@@]12CC[C@@H](N[C@@H](Cc3c[nH]c4ccccc34)C(=O)O)[C@@H]3Oc4c(O)ccc5c4[C@@]31CCN(C)[C@@H]2C5 [Compound 46]",
    "Ki [nM]": 0.65
  },
  {
    "COMPOUND": "CO[C@@]12CC[C@@H](N[C@@H](CC(N)=O)C(=O)OC(C)(C)C)[C@@H]3Oc4c(O)ccc5c4[C@@]31CCN(C)[C@@H]2C5 [27-t-Bu ester]",
    "Ki [nM]": 0.6
  },
  {
    "COMPOUND": "CO[C@@]12CC[C@H](NCCC(=O)OC(C)(C)C)[C@@H]3Oc4c(O)ccc5c4[C@@]31CCN(C)[C@@H]2C5 [21-t-Bu ester]",
    "Ki [nM]": 0.31
  },
  {
    "COMPOUND": "CO[C@@]12CC[C@H](N[C@H](C(=O)OC(C)(C)C)[C@@H](C)O)[C@@H]3Oc4c(O)ccc5c4[C@@]31CCN(C)[C@@H]2C5 [34-t-Bu ester]",
    "Ki [nM]": 0.2
  }
]

----------
SYSTEM_UNDER_TEST: MOR (Rattus norvegicus, UniProt P33535)
Construct: from tissue
ASSAY_DETAILS: Opioid receptor binding, MOR, rat brain membranes
CONDITION_INFO: Binding Ki MOR, Table 2-6, rat brain membranes
pKi: −log10 of the molar value.
// pKi lookup, one value per entry

[
  {
    "MOLECULE": "CO[C@@]12CC[C@@H](N[C@@H](CC(C)C)C(=O)O)[C@@H]3Oc4c(O)ccc5c4[C@@]31CCN(CC1CC1)[C@@H]2C5 [Compound 77]",
    "pKi": 8.71
  },
  {
    "MOLECULE": "CO[C@@]12CC[C@H](N[C@@H](CC(C)C)C(=O)OC(C)(C)C)[C@@H]3Oc4c(O)ccc5c4[C@@]31CCN(CC1CC1)[C@@H]2C5 [76-tBu ester]",
    "pKi": 9.89
  },
  {
    "MOLECULE": "CO[C@@]12CC[C@H](NCCC(=O)O)[C@@H]3Oc4c(O)ccc5c4[C@@]31CCN(CC1CC1)[C@@H]2C5 [Compound 63]",
    "pKi": 8.87
  },
  {
    "MOLECULE": "CO[C@@]12CC[C@@H](N[C@@H](Cc3ccccc3)C(=O)OC(C)(C)C)[C@@H]3Oc4c(O)ccc5c4[C@@]31CCN(CC1CC1)[C@@H]2C5 [58-tBu ester]",
    "pKi": 8.62
  },
  {
    "MOLECULE": "CO[C@@]12CC[C@@H](NCCC(=O)O)[C@@H]3Oc4c(O)ccc5c4[C@@]31CCN(CC1CC1)[C@@H]2C5 [Compound 64]",
    "pKi": 8.82
  },
  {
    "MOLECULE": "CCO[C@@]12CC[C@H](N[C@@H](Cc3ccccc3)C(=O)OC(C)(C)C)[C@@H]3Oc4c(O)ccc5c4[C@@]31CCN(CC1CC1)[C@@H]2C5 [55-tBu ester]",
    "pKi": 9.20
  }
]

----------
SYSTEM_UNDER_TEST: KOR (Cavia porcellus, UniProt P41144)
Construct: from tissue
Sequence (P41144 whole entry): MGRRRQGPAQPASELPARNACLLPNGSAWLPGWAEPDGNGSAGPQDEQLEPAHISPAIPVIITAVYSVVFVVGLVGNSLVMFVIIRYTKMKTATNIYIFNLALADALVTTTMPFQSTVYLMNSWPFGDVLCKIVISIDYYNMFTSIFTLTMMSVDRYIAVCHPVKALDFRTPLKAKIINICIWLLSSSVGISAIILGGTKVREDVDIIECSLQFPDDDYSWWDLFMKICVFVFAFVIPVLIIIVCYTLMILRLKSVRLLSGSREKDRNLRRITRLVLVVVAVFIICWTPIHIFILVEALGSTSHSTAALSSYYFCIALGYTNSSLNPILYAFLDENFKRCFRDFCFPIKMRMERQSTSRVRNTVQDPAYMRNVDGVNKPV
ASSAY_DETAILS: Opioid receptor binding, KOR, guinea pig brain membranes
CONDITION_INFO: Binding Ki (nM) KOR, in vitro binding assay, guinea pig brain membranes
Ki class ranges: bottom end: < 100 nM; midrange: ≥ 100 nM and < 200 nM; top end: ≥ 200 nM

[
  {
    "COMPOUND": "CC[C@H](C)[C@H](N[C@@H]1CC[C@@]2(OC)[C@H]3Cc4ccc(O)c5c4[C@@]2(CCN3C)[C@H]1O5)C(=O)O [Compound 43]",
    "LABEL": "midrange"
  },
  {
    "COMPOUND": "CO[C@@]12CC[C@@H](N[C@@H](CC(C)C)C(=O)OC(C)(C)C)[C@@H]3Oc4c(O)ccc5c4[C@@]31CCN(C)[C@@H]2C5 [41-t-Bu ester]",
    "LABEL": "top end"
  },
  {
    "COMPOUND": "COC12CCC(NC(C(=O)O)C(C)C)C3Oc4c(O)ccc5c4C31CCN(C)C2C5 (single isomer, unassigned) [Compound 28]",
    "LABEL": "top end"
  },
  {
    "COMPOUND": "CC[C@H](C)[C@H](N[C@H]1CC[C@@]2(OC)[C@H]3Cc4ccc(O)c5c4[C@@]2(CCN3C)[C@H]1O5)C(=O)O [Compound 42]",
    "LABEL": "midrange"
  },
  {
    "COMPOUND": "COC12CCC(NCCC(=O)O)C3Oc4c(O)ccc5c4C31CCN(C)C2C5 (single isomer, unassigned) [Compound 22]",
    "LABEL": "bottom end"
  },
  {
    "COMPOUND": "CO[C@@]12CC[C@H](N[C@H](C(=O)OC(C)(C)C)[C@@H](C)O)[C@@H]3Oc4c(O)ccc5c4[C@@]31CCN(C)[C@@H]2C5 [34-t-Bu ester]",
    "LABEL": "bottom end"
  },
  {
    "COMPOUND": "CO[C@@]12CC[C@@H](N[C@@H](CO)C(=O)O)[C@@H]3Oc4c(O)ccc5c4[C@@]31CCN(C)[C@@H]2C5 [Compound 37]",
    "LABEL": "midrange"
  },
  {
    "COMPOUND": "CCC(C)C(NC1CCC2(OC)C3Cc4ccc(O)c5c4C2(CCN3C)C1O5)C(=O)OC(C)(C)C (single isomer, unassigned) [42-t-Bu ester]",
    "LABEL": "bottom end"
  },
  {
    "COMPOUND": "CO[C@@]12CC[C@H](N[C@H](C(=O)O)[C@@H](C)O)[C@@H]3Oc4c(O)ccc5c4[C@@]31CCN(C)[C@@H]2C5 [Compound 34]",
    "LABEL": "midrange"
  },
  {
    "COMPOUND": "COC12CCC(NC(C)C(=O)O)C3Oc4c(O)ccc5c4C31CCN(C)C2C5 (single isomer, unassigned) [Compound 1]",
    "LABEL": "midrange"
  },
  {
    "COMPOUND": "CO[C@@]12CC[C@@H](N[C@@H](CCSC)C(=O)OC(C)(C)C)[C@@H]3Oc4c(O)ccc5c4[C@@]31CCN(C)[C@@H]2C5 [24-t-Bu ester]",
    "LABEL": "midrange"
  },
  {
    "COMPOUND": "CO[C@@]12CC[C@@H](N[C@H](C(=O)OC(C)(C)C)C(C)C)[C@@H]3Oc4c(O)ccc5c4[C@@]31CCN(C)[C@@H]2C5 [29-t-Bu ester]",
    "LABEL": "top end"
  },
  {
    "COMPOUND": "CO[C@@]12CC[C@H](N[C@@H](CC(C)C)C(=O)O)[C@@H]3Oc4c(O)ccc5c4[C@@]31CCN(C)[C@@H]2C5 [Compound 40]",
    "LABEL": "midrange"
  }
]
